The values you see were collected from patent US9670227B2.

# Tested on: H929 multiple myeloma tumour line
# protocol-details: In vitro cytotoxicity, Microculture Tetrazolium Assay
# Type: cell-based
# details: Homo sapiens, NCI-H929, 48 h, H929 cells, 48 hours exposure, MTT; read-out: IC50 (μM) MTT H929
readout-kind: IC50
State the value with its unit after it.

Cc1c(-c2c(-c3ccc(F)cc3)sc3ncnc(OC(Cc4ccccc4OCc4ccnn4CCCC(F)(F)F)C(=O)O)c23)ccc(OCCN2CCN(C)CC2)c1Cl (stereo not drawn) [Example 84]
0.018 µM
Cc1c(-c2c(-c3ccc(F)cc3)sc3ncnc(OC(Cc4ccccc4OCc4ccnc(OCc5cncn5C)n4)C(=O)O)c23)ccc(OCCN2CCN(C)CC2)c1Cl (stereo not drawn) [Example 60]
0.17 µM
Cc1c(-c2c(-c3ccco3)sc3ncnc(OC(Cc4ccccc4OCc4cnc(Cl)cn4)C(=O)O)c23)ccc(OCCN2CCN(C)CC2)c1Cl (stereo not drawn) [Example 269]
0.069 µM
COc1ccccc1-c1nccc(COc2ccccc2CC(Oc2ncnc3sc(-c4ccc(Oc5ccccc5)cc4)c(-c4ccc(OCCN5CCN(C)CC5)c(Cl)c4C)c23)C(=O)O)n1 (single isomer, unassigned) [Example 759]
0.054 µM
Cc1c(-c2c(-c3ccc(F)o3)sc3ncnc(OC(Cc4ccccc4OCC(F)(F)F)C(=O)O)c23)ccc(OCCN(C)C)c1Cl (stereo not drawn) [Example 200]
0.106 µM

Okay, here is my list. What is IC50 for each of these?
1. COc1ccccc1CC(Oc1ncnc2sc(-c3ccco3)c(-c3ccc(OCCN(C)C)c(Cl)c3C)c12)C(=O)O (stereo not drawn) [Example 320]
2. COc1ccccc1CC(Oc1ncnc2sc(-c3cc(C)co3)c(-c3ccc(OCCN4CCN(C)CC4)c(Cl)c3C)c12)C(=O)O (stereo not drawn) [Example 529]
3. CCn1nccc1COc1ccccc1CC(Oc1ncnc2sc(-c3ccc(F)cc3)c(-c3cnc(OCCN4CCN(C)CC4)c(Cl)c3C)c12)C(=O)O (stereo not drawn) [Example 652]
4. CCCCn1nccc1COc1ccccc1CC(Oc1ncnc2sc(-c3cccnc3)c(-c3ccc(OCCN4CCN(C)CC4)c(Cl)c3C)c12)C(=O)O (stereo not drawn) [Example 609]
5. CCc1sc2ncnc(OC(Cc3ccccc3)C(=O)O)c2c1-c1ccc(OCCNC(C)=O)c(Cl)c1C (stereo not drawn) [Example 422]
6. COc1ccccc1CC(Oc1ncnc2sc(-c3ccco3)c(-c3ccc(OCC4CCCCN4C)c(Cl)c3C)c12)C(=O)O (single isomer, unassigned) [Example 309]
7. Cc1c(-c2c(-c3ccc(F)cc3)sc3ncnc(OC(Cc4ccccc4OCc4ccnc(-c5ccccc5O)n4)C(=O)O)c23)ccc(OCCN2CCN(C)CC2)c1Cl (stereo not drawn) [Example 722]

Result:
["0.471 µM", "0.308 µM", "0.059 µM", "0.063 µM", "14.4 µM", "1.48 µM", "0.023 µM"]

---

Could you please report measured IC50 for the items listed next?
# tested-on: Mcl-1 protein (UniProtKB primary accession number: Q07820) (Homo sapiens, UniProt Q07820)
# Sequence (Q07820 whole entry): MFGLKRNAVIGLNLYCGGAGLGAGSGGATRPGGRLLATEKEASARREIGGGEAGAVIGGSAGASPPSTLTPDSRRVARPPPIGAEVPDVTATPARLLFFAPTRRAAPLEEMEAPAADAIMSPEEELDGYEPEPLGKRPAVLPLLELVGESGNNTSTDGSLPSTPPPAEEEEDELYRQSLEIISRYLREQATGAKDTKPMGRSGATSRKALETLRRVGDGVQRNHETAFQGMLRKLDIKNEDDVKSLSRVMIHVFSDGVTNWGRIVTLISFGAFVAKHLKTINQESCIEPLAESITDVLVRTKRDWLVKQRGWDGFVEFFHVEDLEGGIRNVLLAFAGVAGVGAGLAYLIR
# protocol-details: Inhibition of Mcl-1 by fluorescence polarisation, Method 1
# Type: binding
# details: fluorescence polarisation test; Method 2 values are underlined in the patent (underlining not visible here); read-out: IC50 (M) Mcl-1 FP
Answers are plain numbers, in M.

Cc1c(-c2c(-c3ccc(F)cc3)sc3ncnc(OC(Cc4ccccc4OCc4ccnc(-c5ccoc5)n4)C(=O)O)c23)ccc(OCCN2CCN(C)CC2)c1Cl (stereo not drawn)
4.8e-09
CCCCNC(=O)COc1ccccc1CC(Oc1ncnc2sc(-c3ccco3)c(-c3ccc(OCCN4CCN(C)CC4)c(Cl)c3C)c12)C(=O)O (stereo not drawn)
9e-09
COCCN1CCN(CCOc2ccc(-c3c(-c4ccco4)sc4ncnc(OC(Cc5ccccc5OC)C(=O)O)c34)c(C)c2Cl)CC1 (stereo not drawn)
8.3e-09
Cc1c(-c2c(-c3ccco3)sc3ncnc(OC(Cc4ccccc4OCc4cccnn4)C(=O)O)c23)ccc(OCCN2CCN(C)CC2)c1Cl (stereo not drawn)
5.6e-09

Okay, here is my list. What is IC50 for each of these?
1. CNc1nccc(COc2ccccc2CC(Oc2ncnc3sc(-c4ccco4)c(-c4ccc(OCCN5CCN(C)CC5)c(Cl)c4C)c23)C(=O)O)n1 (stereo not drawn)
2. Cc1c(-c2c(-c3ccc(F)o3)sc3ncnc(OC(Cc4ccccc4OCc4ccnc(-c5ccsc5)n4)C(=O)O)c23)ccc(OCCN2CCN(C)CC2)c1Cl (stereo not drawn)

Result:
1. 3.1e-09
2. 3.1e-09
